Data origin: patent US12180187B2

Test system: ABUTH
Assay: Post-emergence action against ABUTH, 1.28 kg/ha
Type: in vivo, Abutilon theophrasti
Conditions: dosage 1280 g/ha, visual rating about 3 weeks after treatment vs untreated controls (100% = plants died)
Kindly state Post-emergence action against ABUTH for each of the entries shown.
Express your answer as a number followed by its unit.

Would you mind telling me what Post-emergence action against ABUTH value was observed for O=C(COc1nn(-c2ccccc2F)c(-c2ccc(F)nc2)c1Br)NO [Example X-023] ?
90%

Entry under review: COC(=O)[C@H](C)Oc1nn(-c2ccccc2F)c(-c2cncnc2)c1Br [VI-008] . Reported Post-emergence action against ABUTH?
90%

I have this molecule here, O=C(O)COc1nn(-c2ccccc2F)c(-c2cnccn2)c1Br [Example I-003] , and I need its recorded Post-emergence action against ABUTH.
90%

I have this molecule here, COC(=O)COc1nn(-c2ccccc2F)c(-c2ccc(F)nc2)c1F [VII-040] , and I need its recorded Post-emergence action against ABUTH.
90%

Name the reported Post-emergence action against ABUTH value associated with the molecule CN(C)S(=O)(=O)NC(=O)COc1nn(-c2ccccc2F)c(-c2ccc(F)nc2)c1Br [Example X-005]
90%
